test system: PRKG2
Recorded Kd values for a group of compounds are listed next.

Illustrative cases are given below, each with its answer.
COMPOUND: CNc1cc(-c2ccc3c(N)n[nH]c3c2)nc(N)n1
ASSAYED_TARGET: PRKG2
Kd: 0.039 µM

COMPOUND: Cc1c(Cn2c(C)c(C)n3c(=O)cc(N4CCOCC4)nc23)cccc1C(F)(F)F
ASSAYED_TARGET: PRKG2;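 further: kd values determined as follow-up on hits from a single-replicate KINOMEscan panel screen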
Kd: > 10 µM

Q: Entry Cn1cncc1C(=O)NC1CCN(c2ccnc(Nc3ccc(F)cc3)n2)C1 (stereo not drawn) : reported Kd = ?
A: > 10 µM

====

tested on: STK39; settings: concentration: 1 μM, replicates: in singlicate; n = 1;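 further: KINOMEscan kinase panel screen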
Recorded %Inh values for a group of molecules are listed next.
Could you give me the number in %? Just the number is fine.

MOLECULE: COc1ccc(Nc2nccc(N3CCC(NC(=O)C(C)c4ccc(Cl)cc4)CC3)n2)cc1 (stereo not drawn)
QUANTITATIVE_READOUT: 38

Q: What is its %Inh for STK39? Entry: `CCn1c(-c2c(N)noc2C)nc2cnccc21`
A: 6

Q: Next entry: `CNC(=O)c1ccc(C)c(-n2c(C)cc(OCc3ccc(F)cc3F)c(Br)c2=O)c1`
A: 0

Q: Next entry: COC(=O)C(Cc1ccccc1)NC(=O)NC1CCN(c2ccnc(Nc3ccc(F)cc3)n2)C1 (stereo not drawn)
A: 10

Q: Next entry: `COc1ccc(Nc2nccc(NCCNC(=O)Nc3cc(C)ccc3C)n2)cc1`
A: 0

Q: Next entry: `Fc1ccc(-c2nc[nH]c2-c2ccncc2)cc1`
A: 0

Q: Next entry: `Cc1c(Cn2c(C)c(C)n3c(=O)cc(N4CCOCC4)nc23)cccc1C(F)(F)F`
A: 0

Q: Next entry: `CC(C)c1ccc(O)cc1Nc1ccnc2ccc(C(F)(F)F)cc12`
A: 0

Q: Next entry: `Cc1nccc(-c2c(-c3ccc(F)cc3)ncn2CCCN2CCOCC2)n1.Cl`
A: 28

Q: Next entry: `Cc1ccc(NC(=O)Nc2ccc(Cl)c(C(F)(F)F)c2)cc1-c1ccc(C(=O)Nc2ccncc2)cc1`
A: 0

Q: Next entry: `Nc1ncnc2occ(-c3ccc4c(c3)CCN4C(=O)Cc3cc(F)ccc3F)c12`
A: 0

Q: Next entry: `COc1cccc(C2=C(Nc3cc(Cl)c(O)c(Cl)c3)C(=O)NC2=O)c1`
A: 0

Q: Next entry: Cn1cncc1C(=O)NC1CCN(c2ccnc(Nc3ccc(F)cc3)n2)C1 (stereo not drawn)
A: 0

Q: Next entry: `CC[C@@H]1CO[C@H](C(=O)Nc2ccccc2)CN1c1cc(-c2ccc3c(N)n[nH]c3c2)nc(NC)n1`
A: 0

Q: Next entry: `CCc1ccc(-c2ccc3c(c2)-c2n[nH]cc2S(=O)(=O)N3C)cc1`
A: 0

Q: Next entry: `Nc1cccc(-c2ccc3c(N)n[nH]c3c2)n1`
A: 1

Q: Next entry: `Cc1ccc(-c2nc(Nc3ccncc3)c3ccccc3n2)s1`
A: 15

Q: Next entry: `Cc1c(Cn2c3ccccc3n3c(=O)cc(N4CCOCC4)nc23)cccc1C(F)(F)F`
A: 0
